- tgt: SARS-CoV-2 receptor binding domain (RBD) (SARS-CoV-2, GenBank MN985325.1 …, UniProt P0DTC2)
- assay-text: BLI
- test-parameters: both partners purified
value-type: pKd
As a rule, pKd stands for the negative log10 of the concentration, concentration in M.

Given the binder C032 (antibody, V domains shown, source: recombinant, purified) VH: EVQLVQSGAEVKKPGESLKISCKGSGYSFTSYWIGWVRQMPGKGLEWMGIIYPGDSDTRYSPSFQGQVTISADKSISTAYLQWSSLKASDTAMYYCARGVAVDWYFDLWGRGTLVTVSS VL: QSVLTQPPSVSGAPGQRVTISCTGSSSNIGAGYDVHWYQQLPGTAPKLLIYGNSNRPSGVPDRFSGSKSGTSASLAITGLQAEDEADYYCQSYDSSLSALYVFGTGTKVTVL , write its reported pKd. 7.49

Provide one value: measured pKd of C840 (antibody, V domains shown, source: recombinant, purified) VH: QVQLVESGGGVVQPGRSLRLSCEASGFTFTAYAMHWLRQAPGKGLEWVAVILNDGSNKLYADSVKGRFTVSRDNSKNMLYLQVNSLRVDDTAVYYCARDGSVDTLMVTWFDYWGQGTLVTVSS VL: DIQMTQSPSSLSASVGDRVTITCRASQSVNNYLNWYQQKPGQAPKLLIYAASSLQSGVPLRFSGSGSGTDFALTITSLHTEDFATYYCQQSYNTPPWTFGPGTKVEIK 8.73

Data credit: paper PMC8277577
